assay: basal HepG2 mitochondrial membrane potential changes, profiling panel, cell-based, JC-1 fluorescence, 24 h, 100 nL compound (AID 1167); details: higher = more signal; further: test concentration not given here
Decision: z-score compared against -0.8; not below it gives True, below it gives False.

Observe how each entry below is paired with its result.
{"columns": ["MOLECULE", "CLASS"],
 "data": [
  ["COC(=O)[C@@]1(Cc2ccc(F)cc2)[C@H]2c3cc(C(=O)N(C)C)n(Cc4ccc(OC)c(OC)c4)c3C[C@H]2CN1C(=O)c1ccccc1", "True"],
  ["CC(C)NC(=O)[C@@]1(c2ccc([N+](=O)[O-])cc2)CC(=O)N(CC23CC4CC(CC(C4)C2)C3)[C@@H]1c1ccc(CO)cc1I", "True"],
  ["CO[C@@H]1COC(=O)CCC[C@@H](C)[C@H](OC)COC(=O)[C@H](Cc2ccccc2)NC(=O)CC=C[C@H]1C", "True"],
  ["Cn1c(=O)n2n(c1=O)[C@H]1[C@H](O)[C@@H]3O[C@@H]3C(=NOC[C@@H](O)COCc3ccco3)[C@H]1CC2", "True"],
  ["O=C1C[C@@H](O)[C@@H](O)[C@@H]2[C@@H]3C(=O)N(C4CCCCC4)C(=O)[C@@H]3CC[C@H]12", "True"]
]}

Q) Could you verify whether the entry [N-]=[N+]=Nc1ccccc1C[C@@]1(C(N)=O)N=C(c2ccc(OCCCO)cc2)O[C@@H]1c1ccccc1 shows z-score of no less than -0.8?
A) True
